# system: Cytochrome P450 3A4 (Homo sapiens, UniProt P08684)
# Sequence (P08684 whole entry): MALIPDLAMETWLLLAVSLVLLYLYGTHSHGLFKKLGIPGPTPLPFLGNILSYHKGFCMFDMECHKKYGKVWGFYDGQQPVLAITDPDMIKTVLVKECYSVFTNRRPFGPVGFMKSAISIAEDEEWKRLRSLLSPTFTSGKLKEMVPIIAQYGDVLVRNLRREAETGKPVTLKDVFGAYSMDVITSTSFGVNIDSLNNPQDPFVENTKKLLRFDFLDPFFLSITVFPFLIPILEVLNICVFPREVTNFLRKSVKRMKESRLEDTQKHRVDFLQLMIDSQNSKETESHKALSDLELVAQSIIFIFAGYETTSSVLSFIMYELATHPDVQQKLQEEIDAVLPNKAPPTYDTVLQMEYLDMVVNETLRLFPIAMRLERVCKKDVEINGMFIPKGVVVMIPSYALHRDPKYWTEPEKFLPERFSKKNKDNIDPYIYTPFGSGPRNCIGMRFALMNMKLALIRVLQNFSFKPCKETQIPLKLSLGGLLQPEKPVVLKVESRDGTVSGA
# method: Inhibition of human cytochrome P450 3A4
observable: pIC50
Remember, pIC50 is on a log scale: it is -log10 of the molar concentration.

1. Cc1nc2cc(OC[C@H](O)CN3CCN(CC(=O)Nc4c(C)cccc4C)CC3)ccc2s1 4.64

The compound listed as CCn1c2ccccc2c2cc(NC(=O)CN3CCN(C[C@@H](O)COc4ccc5sc(C)nc5c4)CC3)ccc21 has a reported pIC50 of 4.41

====

The entries below are paired with their reported remaining at 0.5 h.
# method: Metabolic stability (% remaining at 30 mins) in human S9.
# Assay type: ADME
# run-parameters: human S9 fraction

1. Cc1nc2cc(OC[C@H](O)CN3CCN(CC(=O)Nc4cccc5nsnc45)CC3)ccc2s1 11%
2. Cc1nc2cc(OC[C@H](O)CN3CCN(CC(=O)NCc4ccc(Cl)cc4)CC3)ccc2s1 16%
3. Cc1nc2cc(OC[C@H](O)CN3CCN(CC(=O)Nc4cccc5[nH]ccc45)CC3)ccc2s1 35%

The compound listed as Cc1nc2cc(OC[C@H](O)CN3CCN(CC(=O)NCC4CCCCC4)CC3)ccc2s1 shows remaining at 0.5 h equal to 29%

Cc1nc2cc(OC[C@H](O)CN3CCN(CC(=O)Nc4ccccc4)CC3)ccc2s1 has a reported remaining at 0.5 h of 47%

What the record says about Cc1nc2cc(OC[C@H](O)CN3CCN(CC(=O)Nc4cccc(Oc5ccccc5)c4)CC3)ccc2s1 : remaining at 0.5 h is 15%

For Cc1nc2cc(OC[C@H](O)CN3CCN(CC(=O)N[C@@H](C)c4cccc5ccccc45)CC3)ccc2s1 the compound record lists remaining at 0.5 h as 10%

The compound Cc1nc2cc(OC[C@H](O)CN3CCN(CC(=O)Nc4ccc(-c5ccccc5)cc4)CC3)ccc2s1 showed remaining at 0.5 h equal to 63%

The compound listed as COc1ccc(NC(=O)CN2CCN(C[C@@H](O)COc3ccc4sc(C)nc4c3)CC2)cc1 shows remaining at 0.5 h equal to 41%

====

AUC at 24 h listing for selected compounds.
# method: Total concentration in rat after 1 mg/kg i.v. administration in 24 hours
# Format: ADME, organism-based
# Parameters: dose 1 mg/kg, route intravenous
# run-parameters: in vivo, iv
In your response, put the unit directly after the numeric value.

1. Cc1nc2cc(OC[C@H](O)CN3CCN(CC(=O)Nc4c(C)cccc4C)CC3)ccc2s1 313 ng·h/mL

Now for another entry.
Memo: CCn1c2ccccc2c2cc(NC(=O)CN3CCN(C[C@@H](O)COc4ccc5sc(C)nc5c4)CC3)ccc21 , reported AUC at 24 h: 1320 ng·h/mL

====

# method: Metabolic stability (% remaining at 30 mins) in human S9.
# Format: ADME
# run-parameters: human S9 fraction
observable: remaining at 0.5 h
Write the quantity with the unit trailing the number.

1) Cc1nc2cc(OC[C@H](O)CN3CCN(CC(=O)Nc4ccc(C(F)(F)F)cc4)CC3)ccc2s1 28%

get_value(item= Cc1nc2cc(OC[C@H](O)CN3CCN(CC(=O)Nc4cccc5cccnc45)CC3)ccc2s1 , readout=remaining at 0.5 h) returns 12%

Field remaining at 0.5 h (entry Cc1nc2cc(OC[C@H](O)CN3CCN(CC(=O)Nc4c(C)cccc4C)CC3)ccc2s1 ) reads 50%

The reported remaining at 0.5 h of the compound Cc1nc2cc(OC[C@H](O)CN3CCN(CC(=O)Nc4ccc(Cl)c(C(F)(F)F)c4)CC3)ccc2s1 was 25%

Quick note, remaining at 0.5 h for Cc1nc2cc(OC[C@H](O)CN3CCN(CC(=O)N[C@H]4CCCc5ccccc54)CC3)ccc2s1 landed at 2%

Reported remaining at 0.5 h ( Cc1nc2cc(OC[C@H](O)CN3CCN(CC(=O)NCCc4ccccc4)CC3)ccc2s1 ) = 27%

Looking up Cc1nc2cc(OC[C@H](O)CN3CCN(CC(=O)Nc4ccc5c(c4)CCC5)CC3)ccc2s1 , I found its remaining at 0.5 h recorded as 15%

Value of remaining at 0.5 h reported for the compound Cc1nc2cc(OC[C@H](O)CN3CCN(CC(=O)NC4Cc5ccccc5C4)CC3)ccc2s1 is 2%

The compound Cc1nc2cc(OC[C@H](O)CN3CCN(CC(=O)N[C@H](C)c4ccc5ccccc5c4)CC3)ccc2s1 showed remaining at 0.5 h equal to 45%

Reference source: ChEMBL document CHEMBL1148425
